# Procedure details: PSAC antagonists in infected red cells, primary screen, cell-based, P. falciparum Indochina, OD700, 18 h (AID 1157)
# Condition context: P. falciparum Indochina infected erythrocytes, osmotic lysis OD700, 18 h; higher = more signal, called active from +8 up or from −8 down
Kind request: treat 0.08 as inclusive, so z-score at 0.08 or higher is Yes, anything lower is No.

Worked cases, answers included:
{"columns": ["Molecule smiles", "Answer label"],
 "data": [
  ["COC(=O)[C@@H]1N=C(c2ccc(OCCCO)cc2)O[C@@H]1c1ccccc1N=[N+]=[N-]", "Yes"],
  ["COCCOC(=O)N1C(=O)[C@@]2(c3cc(C#CC4(O)CCCCCC4)ccc31)[C@H](C(=O)N1CCN(c3ncccn3)CC1)[C@H]1C(=O)O[C@H](c3ccccc3)[C@H](c3ccccc3)N1[C@@H]2c1ccc(OCCO)cc1", "Yes"],
  ["CN(C)C(=O)[C@@]1(Cc2ccccc2)N=C(c2ccc(OCCCO)cc2)O[C@H]1c1ccccc1CN=[N+]=[N-]", "No"],
  ["CC(=O)OC[C@H]1O[C@@H](ON=C(C)CCN2CCc3nc(-c4ccccc4)c(-c4ccccc4)cc3C2)[C@H](OC(C)=O)[C@@H](OC(C)=O)[C@@H]1OC(C)=O", "Yes"],
  ["CC(C)[Si]1(C(C)C)O[C@@H](c2ccccc2)c2cc(C3CC3)nc(-c3ccccc3)c21", "No"]
]}

Please examine the following record next.
Q: Could you please find out whether "C#C[C@@H]1Oc2ccccc2S(=O)(=O)N2CCC[C@H]12" has z-score that meets 0.08 or exceeds it?
Result: Yes
